assayed-system: T1, hGal3 peptide 7 (human)
T1 peptide: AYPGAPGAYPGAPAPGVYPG
assay-overview: peptide ELISA, 20-mer library (Epitope Mapping)
measurement-kind: binding result

binder	test-result
7D8.2D8 (antibody, V domains shown, murine antibody) VH: EVQLVESGGGLVKPGGSLKLSCAASGFTFSSYAMSWVRQTPEKRLEWVATISDGGIYTYYPDNVKGRFTISRDNAKNNLFLQMSHLKSEDTAMYYCVRDGGYWGQGTTLTVSS VL: DVLMTQTPLSLPVSLGDQASISCRSSQSIVHSNGNTYLEWYLQKPGQSPKLLIYKVSNRFSGVPDRFSGSGSGTDFTLKISRVEAEDLGVYYCFQGSHVPLTFGAGTKLELK	binds
20D11.2C6 (antibody, V domains shown, murine antibody) VH: EVQLQQSGPELVKPGASVKISCKASGYTFTDFYINWVKQSHGKSLEWIGDINPKNGGINYNPKFKIKATLTVDKSSSTSYMDLRGLTSEDSAVYYCTSGYGFPYWGQGTLVTVSA VL: DIQMNQSPSSLSASLGDTITITCRASQNIYIWLSWYQQKPGNIPKLLIYKASNLHTGVPSRFSGSGSGTDFTLTISTLQPEDIATYFCLQGQSYPLTFGAGTKLEMK	binds
15F10.2D6 (antibody, V domains shown, murine antibody) VH: EVQLVESGGGLVKPGGSLKLSCAASGFAFSSYAMSWVRQTPEKRLEWVATISDGGVYTYYTDHVKGRFTISRDNAEDNLYLQMSHLKSEDTAMYYCVRDGGYWGQGTTLTVSS VL: DVLMTQTPLSLPVSLGDQASISCRSSQSIVHNNGNTYLEWYLQKPGQSPKLLIYKVSNRFSGVPDRFSGSGSGTDFTLKISRVEAEDLGVYYCFQGSHVPLTFGGGTKLELK	binds
